From: paper PMC2756588

Kindly state SPOT intensity for each of the entries shown.
- experimental.system: T1, Pex13, P80667
- T1 sequence (P80667 295-386, looked up): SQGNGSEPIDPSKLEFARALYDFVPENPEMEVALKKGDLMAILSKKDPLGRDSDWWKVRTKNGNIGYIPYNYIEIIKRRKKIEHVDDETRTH
- protocol.description: SPOT array
- reported.conditions: median of control spots 1341
Reply with just the number.

Bench note: what SPOT intensity did `PSTMDFPKLPSFQNS` show?
35

For the binder shown here, `PSRRDSLSIPRAVDA` , give the reported SPOT intensity.
1

Request the reported SPOT intensity associated with `GAGERPRLVPRPINV`
24

Which SPOT intensity is listed for `NMLKKKPLKKPLKRF` ?
18

Dear colleague, I am looking for the recorded SPOT intensity of the following binder: `KRRTSLFPWLHKPGI`
4

# SPOT intensity lookup, item `TYNRTAFQIPGDQSI`
0

Bench note: what SPOT intensity did `LLLLFVPDSPYDPAI` show?
0

Entry under review: `DFTLPPPPPPPGLDE` . Reported SPOT intensity?
0

I am curious: what SPOT intensity value has been reported for `RRGPAPPPPPRASRP` ?
17

Recorded SPOT intensity for `KKEKKPPKIPKKVYT` , please?
0

Please look up its SPOT intensity: `DDEDVPPQLPTRTKS`
97

Which SPOT intensity is listed for `RRLRDKYKLPIVDAD` ?
0

Which SPOT intensity reading was recorded for the binder `GKFIPSRPAPKPPSS` ?
362

Quick check: SPOT intensity of `DAPASKPSVPPRNYF` ?
91

What value of measured SPOT intensity is listed for `IAPIPMPKPNPTHIS` ?
54
